target: CCR2 (Homo sapiens, UniProt P41597); construct: host or cells: THP-1 (human monocytic cell line); assay: MCP-1 Receptor Binding Assay in THP-1 Cells; settings: read-out: MCP1B_v3 IC50
Sequence (P41597 whole entry): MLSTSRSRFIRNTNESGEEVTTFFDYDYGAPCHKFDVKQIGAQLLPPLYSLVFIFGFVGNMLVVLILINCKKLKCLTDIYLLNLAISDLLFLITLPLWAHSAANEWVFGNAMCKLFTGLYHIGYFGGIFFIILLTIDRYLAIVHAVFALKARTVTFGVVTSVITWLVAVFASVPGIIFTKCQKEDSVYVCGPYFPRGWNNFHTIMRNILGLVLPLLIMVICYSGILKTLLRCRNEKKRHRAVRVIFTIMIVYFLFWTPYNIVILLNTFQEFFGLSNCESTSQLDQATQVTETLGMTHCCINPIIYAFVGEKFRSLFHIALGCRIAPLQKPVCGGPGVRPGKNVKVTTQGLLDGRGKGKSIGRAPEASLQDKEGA
pIC50: −log10 of the molar value.
Measured pIC50 values are reported for all entries that follow.

COMPOUND	pIC50
COC1COCCC1N[C@@H]1C[C@H]2CN(c3nccs3)C[C@@]2(C(=O)N2CCc3ncc(C(F)(F)F)cc3C2)C1 (relative stereo)	6.82
COC1COCCC1N[C@@H]1C[C@H]2CN(CCc3ccccc3)C[C@@]2(C(=O)N2CCc3ncc(C(F)(F)F)cc3C2)C1 (relative stereo)	6.00
COC1COCCC1N[C@@H]1C[C@H]2CN(C(C)=O)C[C@@]2(C(=O)N2CCc3ncc(C(F)(F)F)cc3C2)C1 (relative stereo)	6.40
COC1COCCC1N[C@@H]1C[C@H]2CN(C(=O)OCCC(C)(C)O)C[C@@]2(C(=O)N2CCc3ncc(C(F)(F)F)cc3C2)C1 (relative stereo)	7.22
COC1COCCC1N[C@@H]1C[C@H]2CN(C=O)C[C@@]2(C(=O)N2CCc3ncc(C(F)(F)F)cc3C2)C1 (relative stereo)	6.43
COC1COCCC1N[C@@H]1C[C@H]2CN(C(=O)NC(C)C)C[C@@]2(C(=O)N2CCc3ncc(C(F)(F)F)cc3C2)C1 (relative stereo)	6.39
